- systemName: T1, human FLT3 protein (human, UniProt P36888 27-541, limits assumed)
- T1 construct: protein coated in the screening ELISA; also called ELISA FLT3
- measurementProtocol: colorimetric ELISA, periplasmic extract
readoutLabel: ELISA FLT3 (absorbance)

# binder, ELISA FLT3 (absorbance)
data = [
    ("FLL134 (VHH, llama anti-FLT3 variable domain; E. coli periplasmic extract) VHH: QVQLQESGGGLVQPGGSLRLSCAASGGTFSSYATGWFRQVPGKEREFIAGISRNSGRTYAESVKGRFTISRDNAKNTVYLQMNTLRPDDTAVYYCAAARYFTRDAIYTSGDDYDYWGQGTQVTASS", 1.3),
    ("FLL173 (VHH, llama anti-FLT3 variable domain; E. coli periplasmic extract) VHH: QVQLQESGGGLVQAGGSLRLSCATSGRTFNLYRVGWFRQAPGKEREFVARITWSADITQYTDSVKGRFTISRDNAKNTVYLQMNSLKPEDTAIYYCATTLRKSSGIYHTDDYDYWGQGTQVTVSS", 0.5),
]

a: FLL179 (VHH, llama anti-FLT3 variable domain; E. coli periplasmic extract) VHH: QVQLQESGGGLVQAGGSLRLSCKASGVTFSINYIDWYRQAPGKQREWVAQITRDGSSFYADSVKGRFAISRDNAKNTVYLQMNSLKPEDTAVYYCRILSDWGQGTQVTVSS
b: FLL137 (VHH, llama anti-FLT3 variable domain; E. coli periplasmic extract) VHH: QVQLQESGGGLVQAGGSLRLSCAASGSTFNNYAMDWFRQAPGKQREWVAQITRDSSSFYADSVKGRFAISRDNAKNTVYLQMNSLKPEDTAVYYCRVLSYWGQGTQVTVSS
Pick one: a or b . Which one has the lower reported ELISA FLT3 (absorbance)? Response format: the label of the selected entry.
b
